# Subject Of Test: SHP2-C SH2
# Assay Overview: SH2 binding enrichment of the phosphorylated peptide, bacterial display (enrichment ratio); higher = better substrate or ligand; peptides without Tyr show the background
// criterion not met strictly below 0.9 in SH2 binding enrichment; criterion met otherwise

Item Sequence	Category Label
AGRTGYDNREI [BCL2_Y9]	criterion not met
KRFAFYRDSPR [FOXE3_Y108_E103K]	criterion met
LPPGTYPSDFT [UNC5B_Y511_A516T]	criterion not met
GTFEDYVEGLR [MYL6_Y89_YF]	criterion not met

====

# Subject Of Test: Fes (UniProt P07332)
# Sequence (P07332 whole entry, looked up): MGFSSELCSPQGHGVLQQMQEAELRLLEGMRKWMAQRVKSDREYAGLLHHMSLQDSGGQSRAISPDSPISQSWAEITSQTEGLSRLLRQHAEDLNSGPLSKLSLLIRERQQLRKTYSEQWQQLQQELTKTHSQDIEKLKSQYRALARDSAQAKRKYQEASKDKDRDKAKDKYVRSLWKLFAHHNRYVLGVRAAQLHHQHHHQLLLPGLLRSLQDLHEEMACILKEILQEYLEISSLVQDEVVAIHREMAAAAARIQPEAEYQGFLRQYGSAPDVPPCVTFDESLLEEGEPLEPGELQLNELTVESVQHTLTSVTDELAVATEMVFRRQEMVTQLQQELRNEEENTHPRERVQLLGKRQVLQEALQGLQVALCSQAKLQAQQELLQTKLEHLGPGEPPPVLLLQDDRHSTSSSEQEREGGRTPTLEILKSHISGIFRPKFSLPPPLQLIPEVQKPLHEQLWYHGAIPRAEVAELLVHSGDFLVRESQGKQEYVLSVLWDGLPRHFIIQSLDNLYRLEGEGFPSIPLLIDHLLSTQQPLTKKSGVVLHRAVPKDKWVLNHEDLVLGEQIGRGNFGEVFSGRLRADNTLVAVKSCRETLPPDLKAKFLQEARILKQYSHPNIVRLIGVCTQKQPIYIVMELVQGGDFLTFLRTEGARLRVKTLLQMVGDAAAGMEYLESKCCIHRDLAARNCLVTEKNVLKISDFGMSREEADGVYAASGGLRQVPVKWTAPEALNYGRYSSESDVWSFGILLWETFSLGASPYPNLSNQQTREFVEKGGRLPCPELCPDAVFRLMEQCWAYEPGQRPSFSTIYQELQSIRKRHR
# Assay Overview: phosphorylation enrichment, bacterial display (enrichment ratio); higher = better substrate or ligand; peptides without Tyr show the background
// FALSE strictly below 1 in phosphorylation enrichment; TRUE otherwise

Item Sequence	Subject Of Test	Category Label
GFSRHCEDGFP [CTNND1_Y217_Y217C_YF]	Fes (UniProt P07332)	FALSE
VGSEDYGWDLT [SPTAN1_Y1792_R1794W]	Fes (UniProt P07332)	TRUE
EAEPFYRSLRD [NPHS1_Y1139_YF]	Fes (UniProt P07332)	TRUE
NLNGKYYKPRA [ANGPTL3_Y417_N418Y]	Fes (UniProt P07332)	FALSE
TRSYDYMEGED [FGF7_Y58_G62E]	Fes (UniProt P07332)	TRUE
GFWPRYVKVGS [NOG_Y172_R167G]	Fes (UniProt P07332)	FALSE
EFLRNYFTDKA [DSG2_Y775]	Fes (UniProt P07332)	TRUE
KWELRYMHSRV [ABCD1_Y281_G277W]	Fes (UniProt P07332)	TRUE
LLANAYIYDVQ [L1CAM_Y418_V421D]	Fes (UniProt P07332)	TRUE
KGERGYPGTPG [COL4A1_Y348]	Fes (UniProt P07332)	FALSE
SHNKFYMLVAH [MFSD8_Y134_R139H_YF]	Fes (UniProt P07332)	TRUE
STLEVYSCHPP [IL21R_Y317]	Fes (UniProt P07332)	TRUE
SSWKLYPRMLR [HAO1_Y50_R46S]	Fes (UniProt P07332)	FALSE
YQKDVYDIPPS [NEDD9_Y177]	Fes (UniProt P07332)	FALSE
GAVGNYSRGLA [MGMT_Y158_G160R]	Fes (UniProt P07332)	FALSE
GIADDYDKKKL [EIF1_Y54]	Fes (UniProt P07332)	FALSE
FGIAQYCCRMG [LRRK2_Y2023_YF]	Fes (UniProt P07332)	FALSE
GDPVQYNRTTD [MLPH_Y454]	Fes (UniProt P07332)	TRUE
TEVRRYVLPLN [RPE65_Y368_P363T]	Fes (UniProt P07332)	FALSE
KKFPDYIQIAM [SGMS2_Y59_YF]	Fes (UniProt P07332)	TRUE
VNNLVYENING [FRS2_Y306_K303N]	Fes (UniProt P07332)	TRUE
PMQMPYDSRWE [PDGFRA_Y582_L580M]	Fes (UniProt P07332)	TRUE
PFTRNYFVWAV [CYBA_Y87_R90W_YF]	Fes (UniProt P07332)	TRUE
KNNDGNIDYAE [MCFD2_Y135_Y135N]	Fes (UniProt P07332)	TRUE
ERNAHYRTPKI [PTK2B_Y699_R698H]	Fes (UniProt P07332)	FALSE
VRSTEYPCAGL	Fes (UniProt P07332)	FALSE
ICFSDYVEVAD [PHACTR1_Y525_R521C]	Fes (UniProt P07332)	TRUE
DPEGAYTTRGG [EPHA3_Y779_A777G]	Fes (UniProt P07332)	FALSE
EFGEVYKGTLK [EPHA2_Y628_M631T]	Fes (UniProt P07332)	FALSE
SSSNPYSTVTV [ACTN2_Y599_M604V]	Fes (UniProt P07332)	FALSE
EAIMTYVSSFF [ACTN4_Y260_K255E_YF]	Fes (UniProt P07332)	TRUE
ETKRPYTVILI [SBDS_Y128]	Fes (UniProt P07332)	TRUE
AFGEVYEGQES [ALK_Y1131_V1135E]	Fes (UniProt P07332)	TRUE
VDHFGYNKDDK [APOB_Y740_T741N]	Fes (UniProt P07332)	FALSE
TKAEKYVNKPK [PLCG1_Y991_A995P]	Fes (UniProt P07332)	FALSE
CTTIHYNFMCH [TP53_Y234_N239H_YF]	Fes (UniProt P07332)	FALSE
TRSYKCLLLSM [NF1_Y491_Y491C]	Fes (UniProt P07332)	FALSE
FDNPIYQKTTE [LDLR_Y828_V827I]	Fes (UniProt P07332)	FALSE
RAFRRYLLKQK [SCN2A_Y1919_YF]	Fes (UniProt P07332)	FALSE
LMIKEYLTKEL [BAG3_Y457_E455K]	Fes (UniProt P07332)	TRUE
ERTIEYLEEVV [HADHA_Y239_A244V]	Fes (UniProt P07332)	TRUE
IKGNMYYENSY [EGFR_Y112_R108K]	Fes (UniProt P07332)	FALSE
SPYAVYRFFTF [RPGRIP1_Y826]	Fes (UniProt P07332)	TRUE
GIVTGYLVLKE [DNMT3B_Y588_A585V]	Fes (UniProt P07332)	TRUE
LTRDIYKNDYY [ROS1_Y2110_A2106T]	Fes (UniProt P07332)	TRUE
RESYKYLPSSL [CXXC1_Y218_F219L]	Fes (UniProt P07332)	TRUE
